Measured values drawn from ChEMBL document CHEMBL1129670 for this set.

# TARGET_DESC: Voltage-dependent L-type calcium channel subunit alpha-1C (Rattus norvegicus)
# Sequence (P22002 whole entry): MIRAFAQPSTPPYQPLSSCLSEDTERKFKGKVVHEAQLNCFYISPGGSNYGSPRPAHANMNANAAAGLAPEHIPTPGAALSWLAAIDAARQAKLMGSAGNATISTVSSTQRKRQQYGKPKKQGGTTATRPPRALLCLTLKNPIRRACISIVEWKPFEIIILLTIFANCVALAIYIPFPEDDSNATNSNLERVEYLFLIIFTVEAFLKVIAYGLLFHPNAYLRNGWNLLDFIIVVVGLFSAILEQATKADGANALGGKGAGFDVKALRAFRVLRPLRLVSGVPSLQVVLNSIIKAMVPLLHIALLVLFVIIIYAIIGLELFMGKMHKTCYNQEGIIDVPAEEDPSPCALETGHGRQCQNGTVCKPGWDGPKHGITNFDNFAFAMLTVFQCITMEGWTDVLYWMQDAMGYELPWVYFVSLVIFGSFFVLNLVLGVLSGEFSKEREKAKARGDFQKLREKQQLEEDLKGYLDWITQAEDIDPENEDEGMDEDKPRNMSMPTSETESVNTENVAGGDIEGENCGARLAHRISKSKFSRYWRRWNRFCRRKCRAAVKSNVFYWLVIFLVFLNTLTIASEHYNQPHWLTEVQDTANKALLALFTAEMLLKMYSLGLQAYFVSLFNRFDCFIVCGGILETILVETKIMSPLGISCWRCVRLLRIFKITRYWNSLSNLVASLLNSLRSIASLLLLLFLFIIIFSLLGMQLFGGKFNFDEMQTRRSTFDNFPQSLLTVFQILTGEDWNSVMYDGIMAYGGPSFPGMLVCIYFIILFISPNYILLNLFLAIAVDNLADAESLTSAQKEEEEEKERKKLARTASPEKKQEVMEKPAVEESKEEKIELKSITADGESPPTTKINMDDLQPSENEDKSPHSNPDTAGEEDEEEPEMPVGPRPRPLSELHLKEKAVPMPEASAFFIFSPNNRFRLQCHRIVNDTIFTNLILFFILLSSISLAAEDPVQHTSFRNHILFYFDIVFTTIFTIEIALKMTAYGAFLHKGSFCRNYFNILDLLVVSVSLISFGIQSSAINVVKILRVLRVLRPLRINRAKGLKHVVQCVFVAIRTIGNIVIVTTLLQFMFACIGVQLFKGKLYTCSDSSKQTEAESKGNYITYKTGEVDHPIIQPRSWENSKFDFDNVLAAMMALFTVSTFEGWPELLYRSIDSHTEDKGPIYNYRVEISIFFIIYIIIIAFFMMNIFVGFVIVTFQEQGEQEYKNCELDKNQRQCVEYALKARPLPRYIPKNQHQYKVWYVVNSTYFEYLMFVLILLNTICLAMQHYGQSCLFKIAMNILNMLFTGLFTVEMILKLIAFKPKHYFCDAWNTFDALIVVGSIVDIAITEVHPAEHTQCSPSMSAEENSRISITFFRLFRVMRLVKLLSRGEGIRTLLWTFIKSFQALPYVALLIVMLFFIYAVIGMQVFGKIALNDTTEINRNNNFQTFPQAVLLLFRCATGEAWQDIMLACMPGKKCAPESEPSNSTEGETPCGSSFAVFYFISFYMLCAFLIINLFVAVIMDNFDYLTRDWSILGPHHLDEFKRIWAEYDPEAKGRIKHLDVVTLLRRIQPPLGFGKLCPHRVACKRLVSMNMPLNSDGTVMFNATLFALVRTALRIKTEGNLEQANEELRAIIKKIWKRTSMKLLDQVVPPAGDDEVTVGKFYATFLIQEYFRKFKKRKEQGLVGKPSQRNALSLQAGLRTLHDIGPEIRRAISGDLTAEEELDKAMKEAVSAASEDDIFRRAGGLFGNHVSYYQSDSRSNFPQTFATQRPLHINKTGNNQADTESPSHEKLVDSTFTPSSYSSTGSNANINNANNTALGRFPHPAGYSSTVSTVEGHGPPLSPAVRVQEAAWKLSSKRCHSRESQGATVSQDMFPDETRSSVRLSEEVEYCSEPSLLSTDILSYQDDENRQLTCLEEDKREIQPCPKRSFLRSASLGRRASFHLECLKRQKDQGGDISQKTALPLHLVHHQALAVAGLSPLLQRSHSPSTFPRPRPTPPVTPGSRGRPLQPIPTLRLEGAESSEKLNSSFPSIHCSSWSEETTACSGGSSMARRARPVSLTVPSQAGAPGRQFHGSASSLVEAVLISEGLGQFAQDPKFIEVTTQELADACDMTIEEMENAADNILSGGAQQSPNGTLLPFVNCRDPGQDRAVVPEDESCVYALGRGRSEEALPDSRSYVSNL
# ASSAY: Inhibition of [3H]nitrendipine binding to [Ca2+] channel of rat heart
pIC50: −log10 of the molar value.
MEASURE_NAME: pIC50

pIC50 reading for CCCN(c1ccncc1)n1ccc2ccccc21 : < 4.00

----------
# System: Mus musculus
# ASSAY: Antagonistic activity against Scopolamine induced behavioral deficits in mice at dose […] sc
# Format: functional
# EXPERIMENTAL_CONDITIONS: route subcutaneous
MEASURE_NAME: Response (%)
One number for each entry, in %.

The reported value for CCCN(c1ccncc1)n1cc(C#N)c2ccccc21 in terms of Response is 53

Sample CCCN(c1ccncc1)n1ccc2cc(OC)ccc21 ; Response observed: 20

Lab note: measured Response of CC(C)N(c1ccncc1)n1ccc2ccccc21 was 60

GET /value?item= Cc1cn(Nc2ccncc2)c2ccccc12 &field=Response returns 33

Measured Response, c1ccc2c(c1)OCC(C1=NCCN1)O2 (stereo unspecified) [IDAZOXAN] : 60

# ---- query compound ----
For reference, reported Response for CCCN(c1ccncc1)n1cc(C)c2ccccc21 stands at 20
